B1: bovine Ric8A1–492 [bovine] / Gαt333–350 [modified: biotin on the N-terminus (in the BLI assays); biotin on the N-terminus (in the BLI assays)] [not stated] (parent)
chain 1: MEPRAVADALETGEEDVVMEALRAYNRENSQSFTFDDAQQEDRKRLAKLLVSVLEQGLPPSRRVIWLQSIRILSRDRSCLDSFTSRRSLQALACYAGISASQGSVPEPLNMDVVLESLKCLCNLVLSSPVAQALAAEAGLVVRLAERVGLCRQSSFPHDVQFFDLRLLFLLTALRTDVRQQLFQELQGVRLLTRALELTLGMTEGERHPELLPPQETERAMEILKVLFNITFDSIKREVDEEDAALYRHLGTLLRHCVMLAAAGDRTEELHGHAVNLLGNLPVKCLDVLLTLEPHEGSLEFLGVNMDVIRVLLSFMEKRLHQTHRLKESVAPVLSVLTECARMHRPARKFLKAQVLPPLRDVRTRPEVGELLRNKLVRLMTHLDTDVKRVAAEFLFVLCSESVPRFIKYTGYGNAAGLLAARGLMAGGRPEGQYSEDEDTDTDEYKEAKASINPVTGRVEEKPPNPMEGMTEEQKEHEAMKLVNMFDKLSRH
chain 2: DAVTDIIIKENLKDCGLF

variants of: B1; assay: BLI (steady-state binding curve); settings: with Gαt333–350 [modified: biotin on the N-terminus (in the BLI assays), biotinylated Gαt333–350 coupled to a streptavidin biosensor
recorded_metric: pKd
Quick note: pKd means taking -log10 of the concentration in moles per liter.

chain 1 F169R yielded pKd of 5.72
